# Tested on: rabbit euglobulin fraction
# assay-comment: In vitro euglobulin clot lysis time (ECLT)
# Assay type: biochemical
# experimental-conditions: dosage differs per compound (1.3-6.7 μg; UK 5 IU); 96 well microtiter plate; n = 6; NS control 200.01 ± 15.26
Ends that are not written are not given here.
Items are presented alongside their recorded Euglobulin clot lysis time, x ± SD.
API: value field is a number in min; no unit string.

[
  {
    "substance": "3S-(2-Asn-Arg-Pro-Ala-Lys)-1,2,3,4-tetrahydro-β-carboline-3-carboxylic acid (NRPAK; not fully specified (C-terminus)) [compound 25]",
    "Euglobulin clot lysis time, x ± SD (min)": 217.27
  },
  {
    "substance": "3S-(2-Lys-Arg-Pro-Ala-Lys)-1,2,3,4-tetrahydro-β-carboline-3-carboxylic acid (KRPAK; not fully specified (C-terminus)) [compound 23]",
    "Euglobulin clot lysis time, x ± SD (min)": 213.98
  }
]

Okay, next one:
// sample 3S-(2-Ala-Arg-Pro-Ala)-1,2,3,4-tetrahydro-β-carboline-3-carboxylic acid (ARPA; not fully specified (C-terminus)) [compound 27] , its Euglobulin clot lysis time, x ± SD was 203.89
